Where do these numbers come from? They come from the CombiSolv-Exp solvation set (Vermeire and Green 2021).

Assay: solvent given as SMILES
Details: in CN(C)C=O
READOUT_TYPE: solvation free energy, 298 K (kcal/mol)
Unit kcal/mol implied. Number only.

Some compounds with known solvation free energy, 298 K results, for comparison:
CCCCC -2.18
COC(=O)c1ccc(N(C)C)cc1 -11.9
C=C(C)C -1.98

Value of measured solvation free energy, 298 K for the entry c1ccc(-c2ccccc2)cc1 : -9.33

The compound listed as FC(F)C(F)(F)F shows solvation free energy, 298 K equal to -1.54

Measured solvation free energy, 298 K of CCCCCC : -2.62

====

Test: solvent given as SMILES
Settings: in CC(=O)N(C)C
READOUT_TYPE: solvation free energy, 298 K

Previously resolved entries follow.
COMPOUND	solvation free energy, 298 K
c1cc2ccc3cccc4ccc(c1)c2c34	-13.3 kcal/mol
C1CCOC1	-3.96 kcal/mol
CCOC(C)=O	-4.23 kcal/mol
c1ccncc1	-5.76 kcal/mol
CC(=O)CC(C)C	-5.24 kcal/mol

Lab book: solvation free energy, 298 K of CCCCCC noted as -2.76 kcal/mol

For CCCCCCCCCCCCCCCCCCCCCC the compound record lists solvation free energy, 298 K as -15 kcal/mol

Looking up CCCCCCCCCCCCCCCCCCCC , I found its solvation free energy, 298 K recorded as -13.6 kcal/mol

Input CCI . Output solvation free energy, 298 K: -3.97 kcal/mol

Just so you know, measured solvation free energy, 298 K for CCCCCCCC came out at -3.96 kcal/mol

Consider CCC(C)(C)OC . Its measured solvation free energy, 298 K is -3.92 kcal/mol

The compound identified as CCCCC registered its solvation free energy, 298 K at -2.29 kcal/mol
